Hello, the source for this data is the supplement of paper PMC10065799, in case you need it.

- Test system: c-Abl (mouse)
- protocol_notes: phosphorylation enrichment, bacterial display (enrichment ratio); higher = better substrate or ligand; peptides without Tyr show the background
measured_endpoint: phosphorylation enrichment
Respond with the number and no other words.

EQKKNYNAMKK [SCN5A_Y1495_Y1494N]: 1.1
EQLLDYTRTVQ [INPP5E_Y439_R435Q]: 0.614
RPGSGYTKIMR [PKLR_Y564_N566K]: 0.396
TIEDSYRKQVV [KRAS_Y40]: 0.599
QRRLVYFERGA [RYR1_Y245_G248R_YF]: 0.805
LYEDRYLLGTS [ASS1_Y87]: 0.79
TKVVHYWKWIK [KLK2_Y249_R250W]: 0.714
KCLAVYQAGAR [APOE_Y180_R176C]: 0.734
PLSGEYFTLQI [TP53_Y327_D324S]: 2.51
ADFPDYKFRPR [SOX11_Y116_YF]: 0.403

Give the measured phosphorylation enrichment of KASVDYIRKLQ [MITF_Y360] .
0.503

Give the measured phosphorylation enrichment of PLCPDYQEPSR [DDR2_Y481_R478C] .
0.896

Give the measured phosphorylation enrichment of GEEIKYMLWLL [OTC_Y55_S60L] .
0.77

Give the measured phosphorylation enrichment of SIKDKYVMALF [KCNH2_Y611_T613M_YF] .
0.558

----------
- target_under_test: Grb2 SH2 (UniProt P62993)
- Sequence (P62993 whole entry, looked up): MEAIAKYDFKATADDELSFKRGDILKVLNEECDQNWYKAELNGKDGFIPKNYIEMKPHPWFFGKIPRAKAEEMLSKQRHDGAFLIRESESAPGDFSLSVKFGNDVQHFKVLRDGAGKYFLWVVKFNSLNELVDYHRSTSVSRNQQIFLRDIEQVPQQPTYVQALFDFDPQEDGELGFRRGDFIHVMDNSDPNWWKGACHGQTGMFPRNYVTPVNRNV
- protocol_notes: SH2 binding enrichment of the phosphorylated peptide, bacterial display (enrichment ratio); higher = better substrate or ligand; peptides without Tyr show the background
measured_endpoint: SH2 binding enrichment
Respond with the number and no other words.

Examples from the recorded data:
LTTPTYGDLNH [TUBB_Y222]: 1.02
YKIYLYTLNDN [FN1_Y1975]: 0.794
TPRNTYKMTSV [MKI67_Y849_L854V]: 0.844
RMDGTYACSYT [FLNB_Y704]: 1.17
TISPYYRQSLF [CRYAA_Y48]: 0.783

Give the measured SH2 binding enrichment of GRQWNYVASML [KLHL4_Y552_S557L] .
1.25

Give the measured SH2 binding enrichment of MMVGAYSTLEG [ECPAS_Y470] .
0.777

Give the measured SH2 binding enrichment of DHLASYLDKVR [KRT10_Y160_R156H] .
0.776

Give the measured SH2 binding enrichment of WIPNQYPIISE [NOG_Y222_I220N] .
0.788

Give the measured SH2 binding enrichment of MEIHAYRKLLE [LMNA_Y376] .
0.869

Give the measured SH2 binding enrichment of PGVNYYFRVSA .
0.849

Give the measured SH2 binding enrichment of VLICAYLLHRG [PTEN_Y138_M134L] .
1.11

Give the measured SH2 binding enrichment of TVLGEYALPKG [CYP24A1_Y407] .
0.707

----------
- target_under_test: FGFR1 (UniProt P11362)
- Sequence (P11362 whole entry, looked up): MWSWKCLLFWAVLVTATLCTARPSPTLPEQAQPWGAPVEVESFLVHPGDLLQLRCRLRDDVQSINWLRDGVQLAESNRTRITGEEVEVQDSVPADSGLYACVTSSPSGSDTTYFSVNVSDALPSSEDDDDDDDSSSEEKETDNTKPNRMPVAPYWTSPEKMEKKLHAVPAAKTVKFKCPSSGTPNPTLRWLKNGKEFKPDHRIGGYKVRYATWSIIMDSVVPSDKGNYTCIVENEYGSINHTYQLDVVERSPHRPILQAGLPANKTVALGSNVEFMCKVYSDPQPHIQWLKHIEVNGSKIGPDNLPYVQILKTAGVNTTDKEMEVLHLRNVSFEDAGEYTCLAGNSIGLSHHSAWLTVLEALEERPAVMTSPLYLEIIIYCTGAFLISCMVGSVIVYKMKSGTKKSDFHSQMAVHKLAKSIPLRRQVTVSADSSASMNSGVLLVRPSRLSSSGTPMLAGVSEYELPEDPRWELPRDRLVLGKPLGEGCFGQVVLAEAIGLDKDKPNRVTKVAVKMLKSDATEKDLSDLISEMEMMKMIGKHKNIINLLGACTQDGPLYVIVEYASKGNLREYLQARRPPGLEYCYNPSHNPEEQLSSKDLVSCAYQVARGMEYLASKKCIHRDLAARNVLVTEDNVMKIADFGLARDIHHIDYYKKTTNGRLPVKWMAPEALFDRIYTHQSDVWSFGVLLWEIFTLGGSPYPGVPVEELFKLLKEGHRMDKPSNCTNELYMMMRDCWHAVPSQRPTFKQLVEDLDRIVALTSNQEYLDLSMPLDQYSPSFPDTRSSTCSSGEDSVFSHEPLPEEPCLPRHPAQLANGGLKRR
- protocol_notes: phosphorylation enrichment, bacterial display (enrichment ratio); higher = better substrate or ligand; peptides without Tyr show the background
measured_endpoint: phosphorylation enrichment

Give the measured phosphorylation enrichment of TLSGIYQFNIA [FOXL2_Y81_I84N_YF] .
0.543

Give the measured phosphorylation enrichment of YRVDCYKNFVA [FHL1_Y213_C209R] .
0.565

Give the measured phosphorylation enrichment of CTTIHYNDMCN [TP53_Y234_Y236D] .
0.485

Give the measured phosphorylation enrichment of AHDGEYGAEAL [HBA1_Y25_A22D] .
0.513
